Biological target: recombinant human purine nucleoside phosphorylase (rhPNPase) (Homo sapiens, UniProt P00491)
Construct: gene PNP
Sequence (P00491 whole entry): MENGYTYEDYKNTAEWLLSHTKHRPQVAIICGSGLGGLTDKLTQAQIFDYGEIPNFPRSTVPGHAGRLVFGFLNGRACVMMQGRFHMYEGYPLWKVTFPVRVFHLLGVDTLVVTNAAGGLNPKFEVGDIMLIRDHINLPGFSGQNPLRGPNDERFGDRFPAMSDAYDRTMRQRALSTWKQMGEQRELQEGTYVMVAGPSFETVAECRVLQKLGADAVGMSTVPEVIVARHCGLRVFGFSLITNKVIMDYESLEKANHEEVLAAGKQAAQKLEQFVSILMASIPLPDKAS
Experiment: biochemical
assay-endpoint: Ki (µM)
Please reply with the bare figure in µM and do not write the unit itself.

Sure, the documented Ki for `Nc1nc2[nH]c(N)nc2c(=O)[nH]1` is 2.8

* * *

Molecular target: recombinant human purine nucleoside phosphorylase (rhPNPase) (Homo sapiens)
Construct: gene PNP
Test: HPLC-UV enzyme kinetics, guanosine as substrate (Ki […] with inosine), competitive inhibition fit
Format: biochemical
assay-endpoint: Ki (µM)
Please reply with the bare figure in µM and do not write the unit itself.

Sure, the documented Ki for Nc1nc2nc[nH]c(=O)c2[nH]1 [8AHX, 8-aminohypoxanthine] is 20
